So I've got a bunch of compounds here, and I need their Population Healthy Nuclei (%) values.
Tested on: Fibroblast
Protocol Summary: Multiplex assay against human fibroblast
Format: toxicity, cell-based
Settings: 48 h, 1 µM, compound concentration 1 uM, replicate 1
Quick reminder: number only, in %, skip the unit.

q: State the recorded Population Healthy Nuclei (%) for this entry: Cl.Clc1ccc2nsnc2c1NC1=NCCN1 [TIZANIDINE HYDROCHLORIDE]
a: 71

q: Do the same for CN(C)c1ccnc2sc3c(=O)n(N4CCCCCC4)cnc3c12 please
a: 70

q: Do the same for CCCn1c(=O)c2[nH]c(C3CCCC3)nc2n(CCC)c1=O please
a: 70

q: Do the same for N[C@@]1(C(=O)O)CO[C@H]2[C@H](C(=O)O)[C@H]21 [LY-379268] please
a: 68

q: Do the same for O=S(=O)(c1ccccc1)c1cnc2c(N3CCNCC3)cccc2c1 [INTEPIRDINE] please
a: 69

q: Do the same for CCNC1(C(N)=O)CCN(c2ncnc3c2nc(-c2ccccc2Cl)n3-c2ccc(Cl)cc2)CC1 [OTENABANT] please
a: 69

q: Do the same for CC(=O)NCCc1c(Cc2ccccc2)[nH]c2ccccc12 [LUZINDOLE] please
a: 72

q: Do the same for CSCC[C@H](NC=O)C(=O)N[C@@H](CC(C)C)C(=O)N[C@@H](Cc1ccccc1)C(=O)O please
a: 69

q: Do the same for COc1cc(C(=O)N(CCCc2ccccc2)Cc2ccc(CC(=O)O)cc2)cc(OC)c1C please
a: 72

====

Test system: HEK-293T
Protocol Summary: Multiplex assay against HEK293T
Format: toxicity, cell-based
Settings: human, 12 h, 10 µM, compound concentration 10 uM, replicate 1
So I've got a bunch of compounds here, and I need their Population Tubulin-Different-Phenotype (%) values.
Quick reminder: number only, in %, skip the unit.

q: State the recorded Population Tubulin-Different-Phenotype (%) for this entry: CN(C)CCCc1cc(C(=O)Nc2ccc(-c3ccncc3)cc2)ccc1O.Cl.Cl
a: 33

q: Do the same for COc1cc(NC(=O)CCN2CCC(OC(=O)Nc3ccccc3-c3ccccc3)CC2)c(Cl)cc1CNC[C@H](O)c1ccc(O)c2[nH]c(=O)ccc12 please
a: 0

q: Do the same for N#Cc1c(N)nc(SCc2csc(-c3ccc(Cl)cc3)n2)c(C#N)c1-c1ccc(OCCO)cc1 please
a: 62

q: Do the same for CCCN1CCC[C@@H]2Cc3n[nH]cc3C[C@H]21.Cl [QUINPIROLE HYDROCHLORIDE] please
a: 40

====

So I've got a bunch of compounds here, and I need their Population Apoptotic (%) values.
System: U2OS
Protocol Summary: Multiplex assay against U2OS
Format: toxicity, cell-based
Settings: human, 24 h, 10 µM, compound concentration 10 uM, replicate 1

q: State the recorded Population Apoptotic (%) for this entry: CCNC1(C(N)=O)CCN(c2ncnc3c2nc(-c2ccccc2Cl)n3-c2ccc(Cl)cc2)CC1
a: 69%

q: Do the same for CN(C)c1ccnc2sc3c(=O)n(N4CCCCCC4)cnc3c12 please
a: 68%

q: Do the same for CN1CCN2c3ncccc3Cc3ccccc3C2C1 (stereo not given) please
a: 89%

q: Do the same for CN(C)CCCc1cc(C(=O)Nc2ccc(-c3ccncc3)cc2)ccc1O.Cl.Cl please
a: 72%

q: Do the same for CCCN1CCC[C@@H]2Cc3n[nH]cc3C[C@H]21.Cl [QUINPIROLE HYDROCHLORIDE] please
a: 88%

q: Do the same for C[C@H](NC(=O)c1c(C(F)F)nn(C)c1Oc1cccc(C(F)(F)F)c1)c1ccc(C(=O)O)cc1 please
a: 91%

q: Do the same for O=C(O)Cc1ccccc1Nc1c(Cl)cccc1Cl please
a: 72%

q: Do the same for O=S(=O)(c1ccccc1)c1cnc2c(N3CCNCC3)cccc2c1 [INTEPIRDINE] please
a: 72%

q: Do the same for O=C(NCCO)c1cccc(-c2cc(Nc3ccc(OC(F)(F)F)cc3)ncn2)c1 please
a: 82%

q: Do the same for CCCC(CCC)C(=O)O please
a: 83%

q: Do the same for CCOc1c2c(c(OCC)c3ncccc13)CN(c1ccc(CS(=O)(=O)NC(=O)Cc3ccccc3OC)cc1C)C2=O please
a: 76%

q: Do the same for Cl.Clc1ccc2nsnc2c1NC1=NCCN1 [TIZANIDINE HYDROCHLORIDE] please
a: 65%

q: Do the same for Cc1ccc(F)cc1C(=O)Nc1ccc(C(=O)N2Cc3cccn3Cc3ccccc32)c(Cl)c1 please
a: 59%

q: Do the same for Cc1ccc(/C(=C\CN2CCCC2)c2ccccn2)cc1 please
a: 75%

q: Do the same for COc1cc(NC(=O)CCN2CCC(OC(=O)Nc3ccccc3-c3ccccc3)CC2)c(Cl)cc1CNC[C@H](O)c1ccc(O)c2[nH]c(=O)ccc12 please
a: 79%

====

So I've got a bunch of compounds here, and I need their Population Membrane Permeable-Phenotype (%) values.
System: Fibroblast
Protocol Summary: Multiplex assay against human fibroblast
Type: toxicity, cell-based
Settings: 24 h, 1 µM, compound concentration 1 uM, replicate 1
Units required after the number.

q: State the recorded Population Membrane Permeable-Phenotype (%) for this entry: CC(C)(C)c1ccc(S(=O)(=O)Nc2ccc(Cl)cc2C(=O)c2cc[n+]([O-])cc2)cc1
a: 4%

q: Do the same for Cc1ccc(F)cc1C(=O)Nc1ccc(C(=O)N2Cc3cccn3Cc3ccccc32)c(Cl)c1 please
a: 1%

q: Do the same for Oc1c(CN2CCN(c3ccccn3)CC2)cc(Cl)c2cccnc12 please
a: 0%

q: Do the same for CCCn1c(=O)c2[nH]c(C3CCCC3)nc2n(CCC)c1=O please
a: 0%

q: Do the same for C[C@H](NC(=O)c1c(C(F)F)nn(C)c1Oc1cccc(C(F)(F)F)c1)c1ccc(C(=O)O)cc1 please
a: 1%

q: Do the same for O=C(O)c1cc2ccccc2c(Cc2c(O)c(C(=O)O)cc3ccccc23)c1O please
a: 0%

q: Do the same for C[C@H]1[C@H]2CC[C@H]3[C@@H]4CC=C5C[C@@H](N(C)C)CC[C@]5(C)[C@H]4CC[C@]23CN1C please
a: 1%

====

So I've got a bunch of compounds here, and I need their Population Mitotic Cells (%) values.
System: HEK-293T
Protocol Summary: Multiplex assay against HEK293T
Type: toxicity, cell-based
Settings: human, 24 h, 1 µM, compound concentration 1 uM, replicate 1
Units required after the number.

q: State the recorded Population Mitotic Cells (%) for this entry: Cc1ccc(F)cc1C(=O)Nc1ccc(C(=O)N2Cc3cccn3Cc3ccccc32)c(Cl)c1 [LIXIVAPTAN]
a: 69%

q: Do the same for CCCN1CCC[C@@H]2Cc3n[nH]cc3C[C@H]21.Cl [QUINPIROLE HYDROCHLORIDE] please
a: 70%

q: Do the same for Cc1ccccc1C(=O)Nc1ccc(C(=O)N2CCCC(N(C)C)c3ccccc32)cc1.Cl (stereo unspecified) please
a: 68%

q: Do the same for COc1ccccc1N1CCN(CCCCNC(=O)c2ccc3ccccc3c2)CC1.Cl please
a: 72%

q: Do the same for CN(C)c1ccnc2sc3c(=O)n(N4CCCCCC4)cnc3c12 please
a: 70%

q: Do the same for O=S(=O)(c1ccccc1)c1cnc2c(N3CCNCC3)cccc2c1 [INTEPIRDINE] please
a: 71%

q: Do the same for Cc1ccc(/C(=C\CN2CCCC2)c2ccccn2)cc1 [TRIPROLIDINE] please
a: 70%

q: Do the same for C[C@@H]1C[C@H]2[C@@H]3CCC4=CC(=O)C=C[C@]4(C)[C@@]3(F)[C@@H](O)C[C@]2(C)[C@@]1(O)C(=O)CO [DEXAMETHASONE] please
a: 68%

q: Do the same for CCCC(CCC)C(=O)O [VALPROIC ACID] please
a: 71%

q: Do the same for Cc1nc2ccc(Oc3ccc(F)cc3)cc2c(=O)n1C[C@H]1CCCN(C(C)C)C1.Cl please
a: 68%

q: Do the same for O=C(O)Cc1ccccc1Nc1c(Cl)cccc1Cl [DICLOFENAC] please
a: 69%

====

Tested on: HEK-293T
Protocol Summary: Multiplex assay against HEK293T
Type: toxicity, cell-based
Settings: human, 24 h, 10 µM, compound concentration 10 uM, replicate 1
Parameter: Population Mitotic Cells (%)
Quick reminder: number only, in %, skip the unit.

q: State the recorded Population Mitotic Cells (%) for this entry: O=C(NCCO)c1cccc(-c2cc(Nc3ccc(OC(F)(F)F)cc3)ncn2)c1
a: 60

q: Do the same for CC(=O)NCCc1c(Cc2ccccc2)[nH]c2ccccc12 [LUZINDOLE] please
a: 60

q: Do the same for CCNC1(C(N)=O)CCN(c2ncnc3c2nc(-c2ccccc2Cl)n3-c2ccc(Cl)cc2)CC1 [OTENABANT] please
a: 59

q: Do the same for CN(C)CCCc1cc(C(=O)Nc2ccc(-c3ccncc3)cc2)ccc1O.Cl.Cl please
a: 67

q: Do the same for CCCn1c(=O)c2[nH]c(C3CCCC3)nc2n(CCC)c1=O please
a: 50

q: Do the same for O=C(O)Cc1ccccc1Nc1c(Cl)cccc1Cl [DICLOFENAC] please
a: 74

q: Do the same for Cc1ccc(/C(=C\CN2CCCC2)c2ccccn2)cc1 [TRIPROLIDINE] please
a: 63

q: Do the same for COc1cc(C(=O)N(CCCc2ccccc2)Cc2ccc(CC(=O)O)cc2)cc(OC)c1C please
a: 65

q: Do the same for N[C@@]1(C(=O)O)CO[C@H]2[C@H](C(=O)O)[C@H]21 [LY-379268] please
a: 63

q: Do the same for O=S(=O)(c1ccccc1)c1cnc2c(N3CCNCC3)cccc2c1 [INTEPIRDINE] please
a: 47

q: Do the same for CN(C)c1ccnc2sc3c(=O)n(N4CCCCCC4)cnc3c12 please
a: 57

q: Do the same for N#Cc1c(N)nc(SCc2csc(-c3ccc(Cl)cc3)n2)c(C#N)c1-c1ccc(OCCO)cc1 [CAPADENOSON] please
a: 34

q: Do the same for O=C(NCC(=O)N1CC[C@H](N[C@H]2CC[C@@](O)(c3ccc(-c4ncccn4)cn3)CC2)C1)c1cccc(C(F)(F)F)c1 [PF-4136309] please
a: 64

q: Do the same for Cc1ccc(F)cc1C(=O)Nc1ccc(C(=O)N2Cc3cccn3Cc3ccccc32)c(Cl)c1 [LIXIVAPTAN] please
a: 62

Source listed as ChEMBL document CHEMBL5058577.
